The values you see were collected from patent EP4477653A1.

# MEASUREMENT TARGET: human recombinant A3AR (expressed in HEK-293 cells) (Homo sapiens, UniProt P0DMS8)
# Construct: host or cells: HEK-293 cells
# Sequence (P0DMS8 whole entry): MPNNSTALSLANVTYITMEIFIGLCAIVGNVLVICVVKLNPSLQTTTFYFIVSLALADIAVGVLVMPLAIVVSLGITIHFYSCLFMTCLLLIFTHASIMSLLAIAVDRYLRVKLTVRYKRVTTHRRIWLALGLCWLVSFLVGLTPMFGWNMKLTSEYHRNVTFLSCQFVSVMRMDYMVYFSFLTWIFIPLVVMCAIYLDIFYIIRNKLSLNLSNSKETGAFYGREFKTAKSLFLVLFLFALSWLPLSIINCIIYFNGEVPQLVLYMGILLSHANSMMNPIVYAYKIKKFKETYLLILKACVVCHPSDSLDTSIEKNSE
# ASSAY PROTOCOL: Adenosine receptors antagonism assay (Eurofins), [125I]-AB-MECA radioligand competition
# Assay type: binding
# MEASUREMENT SETUP: [125I]-AB-MECA 0.15 nM, r.t., 120 min; IC50 from dose-response curves; read-out: Potency Class A3AR
pIC50: −log10 of the molar value.
Property: pIC50; scope: individual compounds

Ask | Report pIC50 for COc1ccc(CNc2cc(NCc3ccccn3)c3nnc(C4CC4)n3n2)cc1 please.
Reply | 8.00 to 9.00
